# measured.on: Eukaryotic translation initiation factor 4E (Mus musculus)
# Sequence (P63073 whole entry): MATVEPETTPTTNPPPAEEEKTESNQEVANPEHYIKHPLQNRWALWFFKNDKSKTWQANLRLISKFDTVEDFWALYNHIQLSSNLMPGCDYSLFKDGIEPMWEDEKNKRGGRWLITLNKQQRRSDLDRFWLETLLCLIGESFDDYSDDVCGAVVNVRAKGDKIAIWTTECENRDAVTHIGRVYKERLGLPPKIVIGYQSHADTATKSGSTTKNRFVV
# method: blockers of eIF4G binding by eIF4E – biochemical, TR-FRET, dose response (AID 855);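 also: potency for disrupting eIF4E binding to eIF4GI seen as loss of FRET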
# Assay type: functional
Active and inactive are the calls of the source.
Labels: active, inactive

{"molecule": "CC1=CC2=NC(=O)CC(C)(C(=O)N(CC(=O)NC3CCCC3)c3cc(C)cc(C)c3)N2C=C1 (stereo not given)", "category.label": "inactive"}
{"molecule": "O=C(Nc1ccc(Cl)c(Cl)c1)Nc1nnc(-c2ccncc2)s1", "category.label": "inactive"}
{"molecule": "CCN(CC)c1ccc(/N=C/c2c(C)[nH]c3ccccc23)cc1", "category.label": "inactive"}
{"molecule": "CCOc1cc(C(=O)Nc2ccc3c4c(cccc24)C(=O)N3CC)cc(OCC)c1OCC", "category.label": "inactive"}
{"molecule": "N=C1/C(=C/c2ccc(-c3cccc(C(=O)O)c3)o2)C(=O)N=C2SC=C(c3ccccc3)N12", "category.label": "active"}
{"molecule": "CCCCCn1c(=O)[nH]c2cc(C(=O)N3CCN(Cc4ccc5c(c4)OCO5)CC3)ccc2c1=O", "category.label": "inactive"}
{"molecule": "Nc1ccc(N(c2ccccc2)c2ccc(N)cc2)cc1", "category.label": "inactive"}
{"molecule": "Cc1cc(C)n2nc(C(=O)NCc3ccccc3)cc2n1", "category.label": "inactive"}
{"molecule": "COc1cc(CN(C(=O)c2ccco2)c2ccc(C)cc2)ccc1O", "category.label": "inactive"}
{"molecule": "c1ccc2[nH]c(SN3CCOCC3)nc2c1", "category.label": "active"}

----------
# measured.on: Sentrin-specific protease 8 (Homo sapiens, UniProt Q96LD8)
# Sequence (Q96LD8 whole entry): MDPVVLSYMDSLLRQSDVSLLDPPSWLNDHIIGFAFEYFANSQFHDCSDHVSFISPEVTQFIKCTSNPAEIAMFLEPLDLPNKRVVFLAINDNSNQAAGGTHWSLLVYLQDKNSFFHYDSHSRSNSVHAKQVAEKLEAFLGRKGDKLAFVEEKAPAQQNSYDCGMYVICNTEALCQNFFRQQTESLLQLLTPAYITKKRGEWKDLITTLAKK
# method: inhibition of human SENP8 cleavage activity – biochemical, luminescence, SAR follow-up (AID 504501)
# Assay type: functional
The source made the active and inactive calls.
Labels: active, inactive

{"item.smiles": "O=C(/C=C/c1ccc(OC2CSC2)cc1)c1ccc(Cl)cc1", "category.label": "inactive"}
{"item.smiles": "Fc1cc(C(F)(F)F)ccc1-c1nc(/C=C/c2ccccc2)no1", "category.label": "inactive"}
{"item.smiles": "CCc1ccc2oc(-c3ccc(NC(C)=O)cc3)nc2c1", "category.label": "active"}
{"item.smiles": "O=C(Nc1nc2ccc(NC(=O)c3n[nH]c4c3CCc3ccccc3-4)cc2s1)c1ccccc1", "category.label": "inactive"}

----------
Each entry below carries its recorded CC50.
# System: Vero
# method: cells
# Type: functional
# conditions.used: Chlorocebus sabaeus
Calls of active or inactive are those of the source.

{"item.smiles": "Cc1cc2cc(CN(CCN(C)C)C(S)=NCc3ccco3)c(O)nc2cc1C", "CC50": "> 25 µM (active)"}
{"item.smiles": "O=C(COc1cccc2cccnc12)N/N=C/c1cccn1-c1ccc(F)cc1", "CC50": "> 25 µM (active)"}
{"item.smiles": "CCOC(=O)/C(=C\\c1ccccc1)C(=O)c1cc(C(C)=O)c(Nc2ccccc2)s1", "CC50": "14.8 µM (active)"}
{"item.smiles": "Cc1cc(C(=O)Nc2nc(-c3ccccn3)cs2)ccc1[N+](=O)[O-]", "CC50": "> 25 µM (active)"}

----------
AC50 values recorded for Cytochrome P450 2D6 (Homo sapiens)

{"compound": "c1ccc(-c2cccc(N3CCC4(CCNCC4)CC3)c2)cc1", "AC50": "39.8 µM (inconclusive)"}
{"compound": "C#CCN1C(C)=C(C(=O)OC)[C@@H](c2cccc([N+](=O)[O-])c2)C(C(=O)OCC)=C1C", "AC50": "15.8 µM (inconclusive)"}
{"compound": "Cc1nc2cnc(N3CCNCC3)nc2n(Cc2cccs2)c1=O", "AC50": "12.6 µM (inconclusive)"}
{"compound": "CCC1CCCCN1Cc1cc(OC)c(O)c([N+](=O)[O-])c1 (stereo unspecified)", "AC50": "14.1 µM (inconclusive)"}
{"compound": "Cc1cccc(NC(=O)CCCN2C(=O)c3cccc4cccc(c34)C2=O)c1", "AC50": "25.1 µM (inconclusive)"}
{"compound": "CN(C)c1ccc(-c2nccc(NCCN3CCOCC3)n2)cc1", "AC50": "39.8 µM (inconclusive)"}
{"compound": "CCC(=O)Nc1cccc(-c2nc3ccccc3c(=O)o2)c1", "AC50": "31.6 µM (inconclusive)"}
{"compound": "CC[C@H]1CN2CCc3cc(OC)c(OC)cc3[C@H]2C[C@@H]1C[C@H]1NCCc2c1[nH]c1ccc(O)cc21", "AC50": "3.98 µM (inconclusive)"}
{"compound": "COc1ccc2[nH]cc(CCNc3ccnc(-c4c(C)noc4C)n3)c2c1", "AC50": "12.6 µM (inconclusive)"}
{"compound": "Cc1ccc(S(=O)(=O)N2CCOCC2)cc1NC(=O)COC(=O)CCC(=O)c1cccs1", "AC50": "31.6 µM (inconclusive)"}
{"compound": "O=c1c(CCc2ccccc2)nc2cncnc2n1C1CC1", "AC50": "15.8 µM (inconclusive)"}

----------
Each entry below carries its recorded EC50.
# measured.on: UniProt P08659
# Sequence (P08659 whole entry): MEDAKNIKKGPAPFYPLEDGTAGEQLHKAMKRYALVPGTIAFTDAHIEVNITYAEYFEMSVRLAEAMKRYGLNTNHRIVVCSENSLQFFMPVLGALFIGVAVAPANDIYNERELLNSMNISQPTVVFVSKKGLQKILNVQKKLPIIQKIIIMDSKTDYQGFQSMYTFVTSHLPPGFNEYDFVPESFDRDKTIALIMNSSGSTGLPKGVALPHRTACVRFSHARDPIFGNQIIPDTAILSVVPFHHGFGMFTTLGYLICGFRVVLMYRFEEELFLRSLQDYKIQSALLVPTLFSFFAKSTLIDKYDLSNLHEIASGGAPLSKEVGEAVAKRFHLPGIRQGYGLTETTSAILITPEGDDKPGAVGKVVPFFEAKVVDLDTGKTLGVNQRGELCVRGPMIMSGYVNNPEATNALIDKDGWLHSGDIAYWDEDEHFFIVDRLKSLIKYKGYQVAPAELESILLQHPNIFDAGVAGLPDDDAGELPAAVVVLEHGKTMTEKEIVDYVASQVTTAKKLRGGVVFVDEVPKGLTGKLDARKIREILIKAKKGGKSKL
# method: inhibition of purified Photinus pyralis luciferase – biochemical, luminescence, dose response (AID 1891)
Activity calls are given as the source filed them.
result.type: EC50

{"item.smiles": "CC1(C)CC(N2CCC(=O)NC2=S)CC(C)(C)N1", "result.type": "EC50", "reading": "> 112 µM (not active)"}
{"item.smiles": "Cc1ccc(O)c(N=Nc2ccccc2)n1", "result.type": "EC50", "reading": "1.2 µM (active)"}
{"item.smiles": "Cc1ccc(N=C(S)c2ccc3ccccc3n2)c(C)c1", "result.type": "EC50", "reading": "> 112 µM (not active)"}
{"item.smiles": "COc1ccc(C(=O)Nc2nc3ccccc3s2)c(OC)c1", "result.type": "EC50", "reading": "0.241 µM (active)"}
{"item.smiles": "CC(C)c1ccc(-c2cc(C(=O)NN3CCN(C)CC3)c3ccccc3n2)cc1", "result.type": "EC50", "reading": "18.2 µM (active)"}
{"item.smiles": "COc1ccc(/C=C/c2nc3ccccc3n2C)cc1", "result.type": "EC50", "reading": "0.747 µM (active)"}
{"item.smiles": "Oc1cccc(/C=N/Nc2nn3cnnc3c3ccccc23)c1", "result.type": "EC50", "reading": "5.06 µM (active)"}
{"item.smiles": "Cc1cccc(C(=N)NOC(=O)c2ccccc2Cl)c1", "result.type": "EC50", "reading": "1.96 µM (active)"}

----------
# measured.on: Heat shock factor protein 1 (Mus musculus, UniProt P38532)
# Sequence (P38532 whole entry): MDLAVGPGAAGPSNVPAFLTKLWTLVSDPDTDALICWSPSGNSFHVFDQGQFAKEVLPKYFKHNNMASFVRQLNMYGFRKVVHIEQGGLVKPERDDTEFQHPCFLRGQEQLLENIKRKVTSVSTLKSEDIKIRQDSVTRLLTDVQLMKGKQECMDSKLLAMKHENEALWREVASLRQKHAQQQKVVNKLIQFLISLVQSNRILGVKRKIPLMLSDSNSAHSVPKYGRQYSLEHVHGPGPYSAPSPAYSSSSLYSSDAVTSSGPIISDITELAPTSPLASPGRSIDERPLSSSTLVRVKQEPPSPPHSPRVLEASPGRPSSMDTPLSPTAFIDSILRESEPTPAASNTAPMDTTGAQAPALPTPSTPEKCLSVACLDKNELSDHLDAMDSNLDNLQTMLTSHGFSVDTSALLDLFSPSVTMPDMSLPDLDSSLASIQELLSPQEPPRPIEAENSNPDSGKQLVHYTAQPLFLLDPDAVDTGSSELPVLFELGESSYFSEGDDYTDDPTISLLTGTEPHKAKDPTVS
# method: enhancement of HSF1-driven luciferase signal – cell-based, NIH3T3, luminescence, dose retest, confirmation (AID 435004);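 also: stress induced by proteasome inhibitor MG132 added 30 min after compound; luciferase reporter driven by HSF1 response element in NIH3T3 cells; actives raise luminescence as potentiators of the MG132 stress response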
# Type: functional
Activity calls are given as the source filed them.
Labels: active, inactive

{"molecule": "N#Cc1cc(-c2ccccc2)cnc1Sc1ccccc1", "measured.on": "Heat shock factor protein 1 (Mus musculus, UniProt P38532)", "category.label": "inactive"}
{"molecule": "CCCc1n[nH]c2c1C1(C(=O)N(Cc3ccccc3)c3ccccc31)C(C(=O)OC)=C(N)O2 (stereo unspecified)", "measured.on": "Heat shock factor protein 1 (Mus musculus, UniProt P38532)", "category.label": "inactive"}
{"molecule": "Cc1ccc(N2C(=O)NC(=O)/C(=C\\C=C\\c3ccco3)C2=O)cc1C", "measured.on": "Heat shock factor protein 1 (Mus musculus, UniProt P38532)", "category.label": "active"}
{"molecule": "N=c1c(S(=O)(=O)c2ccc(Br)cc2)cc2c(=O)n3ccccc3nc2n1C1CCCC1", "measured.on": "Heat shock factor protein 1 (Mus musculus, UniProt P38532)", "category.label": "inactive"}
{"molecule": "COc1ccc(C(=O)Cn2c(C(=O)/C=C/c3ccccc3)nc3ccccc32)cc1", "measured.on": "Heat shock factor protein 1 (Mus musculus, UniProt P38532)", "category.label": "active"}
{"molecule": "Cc1ccc(/C=C/C(=O)Nc2ccc([N+](=O)[O-])c(NC(=O)/C=C/c3ccc(C)o3)c2)o1", "measured.on": "Heat shock factor protein 1 (Mus musculus, UniProt P38532)", "category.label": "active"}
{"molecule": "CC(=O)Oc1ccc(Cn2cnc3cc4ccccc4cc32)cc1", "measured.on": "Heat shock factor protein 1 (Mus musculus, UniProt P38532)", "category.label": "active"}
{"molecule": "CCc1nnc(NC(=O)C(NC(=O)c2ccccc2Cl)C(C)C)s1 (stereo unspecified)", "measured.on": "Heat shock factor protein 1 (Mus musculus, UniProt P38532)", "category.label": "inactive"}
{"molecule": "Cc1sc2nc(C3CC3)nc(SCC(=O)N3CCc4ccccc4C3)c2c1C", "measured.on": "Heat shock factor protein 1 (Mus musculus, UniProt P38532)", "category.label": "active"}
{"molecule": "COc1ccc(S(=O)(=O)Nc2ccncc2)c(C)c1C", "measured.on": "Heat shock factor protein 1 (Mus musculus, UniProt P38532)", "category.label": "inactive"}
{"molecule": "COc1cccc(NN=C2C(=O)NC(=S)NC2=O)c1", "measured.on": "Heat shock factor protein 1 (Mus musculus, UniProt P38532)", "category.label": "active"}
